- Tested on: rhLYPLA1
- MEASUREMENT_DESCRIPTION: LYPLA1 and LYPLA2 inhibitors, biochemical, gel-based ABPP, fluorescence, recombinant and endogenous enzyme (AID 493105)
- DETAILS: fluorescent probe labeling, soluble fraction, at 20 µM, stronger effect = higher value
Measured inhibition by item
MEASURED_PARAMETER: inhibition (%)

COMPOUND: CC(=O)N1CCN(c2ccc(NC(=S)NC(=O)c3ccc(C)c([N+](=O)[O-])c3)cc2)CC1
ENDPOINT_RESULT: 17
//
COMPOUND: OC(COc1ccc(Cl)cc1)CN1CCN(c2cccc(Cl)c2)CC1 (stereo unspecified)
ENDPOINT_RESULT: 0
//
COMPOUND: CC1CCc2c(sc(NC(=O)CN3CCN(C(=O)c4ccco4)CC3)c2C#N)C1 (stereo unspecified)
ENDPOINT_RESULT: 16
//
COMPOUND: O=C(c1ccc2n[nH]nc2c1)N1CCN(c2ccc(C(F)(F)F)cn2)CC1
ENDPOINT_RESULT: 70
//
COMPOUND: CCOc1ccc(NC(=S)NC(=O)c2c(Br)cnn2C)c([N+](=O)[O-])c1
ENDPOINT_RESULT: 17
//
COMPOUND: O=c1ccc2ccc(Oc3ccc([N+](=O)[O-])cc3Cl)cc2o1
ENDPOINT_RESULT: 0
//
COMPOUND: O=C(C1CCC(Cn2c(=S)[nH]c3ccccc3c2=O)CC1)N1CCN(c2ccccc2)CC1 (stereo unspecified)
ENDPOINT_RESULT: 0
//
COMPOUND: COc1ccc(N2CCN(C(=O)CNC(=O)c3cn(-c4ccccc4OC)c(=O)c4ccccc34)CC2)cc1
ENDPOINT_RESULT: 0
//
COMPOUND: COc1ccc(OCC(O)CN2CCC(CN3C(=O)c4cccc5cccc(c45)C3=O)CC2)cc1 (stereo unspecified)
ENDPOINT_RESULT: 0
//
COMPOUND: CSc1ccccc1OCc1cc(C(=O)N2CCC(Oc3cccnc3)CC2)no1
ENDPOINT_RESULT: 0
//
COMPOUND: O=c1[nH]c(CN2CCN(C/C=C/c3ccccc3)CC2)nc2cc(Cl)ccc12
ENDPOINT_RESULT: 3
//
COMPOUND: COc1cc([C@H]2Oc3cc([C@H]4Oc5cc(O)cc(O)c5C(=O)[C@@H]4O)ccc3O[C@@H]2CO)ccc1O
ENDPOINT_RESULT: 13
//
COMPOUND: O=C(CN1CCN(C(=O)c2ccco2)CC1)Nc1cc(C(F)(F)F)ccc1Cl
ENDPOINT_RESULT: 78
//
COMPOUND: COc1ccc(C(=O)NC(=S)Nc2ccc(N3CCOCC3)c(Cl)c2)cc1[N+](=O)[O-]
ENDPOINT_RESULT: 7
//
COMPOUND: NS(=O)(=O)c1ccc(CCNC(=O)c2cc([N+](=O)[O-])ccc2N2CCCCC2)cc1
ENDPOINT_RESULT: 49
//
COMPOUND: Cc1ccc(OCC(=O)N2CCN(C(=O)CCC3CCCC3)CC2)cc1
ENDPOINT_RESULT: 43
//
COMPOUND: COc1ccccc1-n1cc(C(=O)NCC(=O)N2CCN(Cc3ccccc3)CC2)c2ccccc2c1=O
ENDPOINT_RESULT: 0
//
COMPOUND: CC(=O)N1CCC2(CC1)C/C(=N\NC(=S)Nc1ccccc1C)c1cc(O)ccc1O2
ENDPOINT_RESULT: 0
//
COMPOUND: O=C(O)c1ccc2c(c1)C(=O)N(CCCCCCCN1C(=O)c3ccc(C(=O)O)cc3C1=O)C2=O
ENDPOINT_RESULT: 65
//
COMPOUND: CC(NC(=O)c1ccco1)C(=O)N1CCN(c2cccc(C(F)(F)F)c2)CC1 (stereo unspecified)
ENDPOINT_RESULT: 20
//
COMPOUND: COc1cc(COc2ccc3c(C)c(Cc4ccccc4)c(=O)oc3c2)cc(OC)c1OC
ENDPOINT_RESULT: 0
//
COMPOUND: O=[N+]([O-])c1cccc(/C=N/N2CCN(Cc3ccc(Cl)cc3)CC2)c1
ENDPOINT_RESULT: 0
//
COMPOUND: O=C(CCN1CCN(c2ccc([N+](=O)[O-])cc2)CC1)c1ccc(Cl)cc1
ENDPOINT_RESULT: 0
//
COMPOUND: O=C(CN1CCN(C(=O)c2ccccc2)CC1)Nc1cc(S(=O)(=O)N2CCCC2)ccc1Cl
ENDPOINT_RESULT: 55
//
COMPOUND: Cc1nn(-c2ccccc2)c(N2CCCC2)c1/C=N/Nc1ccc(S(N)(=O)=O)cc1[N+](=O)[O-]
ENDPOINT_RESULT: 7
//
COMPOUND: O=C(COc1ccc(Cl)cc1)N1CCN(c2ccc([N+](=O)[O-])c(N3CCOCC3)c2)CC1
ENDPOINT_RESULT: 47
